# Target or system: BMX (Homo sapiens)
# Sequence (P51813 whole entry): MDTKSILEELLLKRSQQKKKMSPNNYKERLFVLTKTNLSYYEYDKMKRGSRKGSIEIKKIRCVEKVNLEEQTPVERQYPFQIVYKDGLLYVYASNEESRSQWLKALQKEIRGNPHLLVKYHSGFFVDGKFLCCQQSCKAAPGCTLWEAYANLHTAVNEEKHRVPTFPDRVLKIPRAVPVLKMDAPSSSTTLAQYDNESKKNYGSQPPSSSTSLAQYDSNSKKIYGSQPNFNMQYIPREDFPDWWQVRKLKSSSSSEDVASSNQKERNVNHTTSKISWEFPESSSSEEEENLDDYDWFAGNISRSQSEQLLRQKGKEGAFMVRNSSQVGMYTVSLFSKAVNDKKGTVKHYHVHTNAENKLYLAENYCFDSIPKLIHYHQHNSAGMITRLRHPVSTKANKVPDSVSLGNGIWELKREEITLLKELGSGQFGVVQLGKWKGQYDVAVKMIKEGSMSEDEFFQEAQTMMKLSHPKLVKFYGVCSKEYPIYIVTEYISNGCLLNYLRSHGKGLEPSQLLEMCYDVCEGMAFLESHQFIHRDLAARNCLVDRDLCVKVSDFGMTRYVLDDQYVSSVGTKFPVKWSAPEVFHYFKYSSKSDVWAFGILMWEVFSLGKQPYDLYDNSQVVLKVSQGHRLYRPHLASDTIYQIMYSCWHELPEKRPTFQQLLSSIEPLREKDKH
pIC50: −log10 of the molar value.

>  <Chemical structure>
C=CC(=O)Nc1cccc(Oc2nc(Nc3ccc(N4CCN(C)CC4)cc3)nc3ccoc23)c1

>  <pIC50>
9.19

$$$$
